# Test system: Plasmodium yoelii nigeriensis
# Measurement Notes: Antimalarial activity as reduced parasitaemia against Plasmodium yoelii nigeriensis MDR infected Swiss mice (Mus musculus) at 100 mg/kg peroral dose for 4 days
# Format: functional
# Parameters: scale not given: the % may be the effect or the level left
# Run Conditions: route oral
Result Type: Activity (%)
# number only, unit % dropped from output

Guide cases for Activity, answers given:
>>> obs_value("N#Cc1cccc(NC(=O)Nc2ccc3ncnc(Nc4cccc(F)c4)c3c2)c1")
46.4
>>> obs_value("O=C(Nc1ccc(Cl)cc1)Nc1ccc2ncnc(Nc3cccc(F)c3)c2c1")
0
>>> obs_value("COc1ccc(Nc2ncnc3ccc(NC(=O)Nc4ccc(Cl)c(C(F)(F)F)c4)cc23)cc1OC")
0
>>> obs_value("O=C(Nc1ccc(Br)cc1)Nc1ccc2ncnc(Nc3cccc(C(F)(F)F)c3)c2c1")
50.4

Continue with the next compound.
Exercise: Need Activity, item COc1ccc(Nc2ncnc3ccc(NC(=O)Nc4cccc(C#N)c4)cc23)cc1OC
Key: 13.9

---

Here the recorded log10 of IC50 is given for each entry.
# Test system: Plasmodium falciparum
# Measurement Notes: Antimalarial activity after 72 hrs against chloroquine-sensitive Plasmodium falciparum 3D7 infected erythrocytes by MSF assay
# Type: functional, organism-based
# Run Conditions: 3D7, 72 h
Form field - Quantity: IC50; Unit: µg/mL; Scale: log10

Completed entries (count: 4):
>>> obs_value("O=C(Nc1ccc(Cl)c(Cl)c1)Nc1ccc2ncnc(Nc3cccc(C(F)(F)F)c3)c2c1")
-1.89
>>> obs_value("COc1ccc(Nc2ncnc3ccc(NC(=O)Nc4ccc(C)c(Cl)c4)cc23)cc1OC")
-1.65
>>> obs_value("COc1ccc(Nc2ncnc3ccc(NC(=O)Nc4cc(Cl)cc(Cl)c4)cc23)cc1OC")
-1.08
>>> obs_value("COc1cccc(Nc2ncnc3ccc(NC(=O)Nc4ccc(Cl)cc4)cc23)c1")
-0.80

Continue with the next compound.
Exercise: Return reported log10 of IC50; argument: COc1ccc(Nc2ncnc3ccc(NC(=O)Nc4ccc(Cl)c(Cl)c4)cc23)cc1OC
Key: -1.09

---

// IC50 lookup, one value per entry
# Test system: Plasmodium falciparum
# Measurement Notes: Antimalarial activity after 72 hrs against chloroquine-sensitive Plasmodium falciparum 3D7 infected erythrocytes by MSF assay
# Assay type: functional, organism-based
# Run Conditions: 3D7, 72 h
The response must be a number in µg/mL with no trailing unit.

Record excerpt, results attached:
>>> obs_value("O=C(Nc1ccc(Cl)c(Cl)c1)Nc1ccc2ncnc(Nc3cccc(F)c3)c2c1")
0.0245
>>> obs_value("COc1ccc(Nc2ncnc3ccc(NC(=O)Nc4ccc(Cl)cc4)cc23)cc1")
0.094

Exercise: Query (molecule): O=C(Nc1ccc(Cl)c(C(F)(F)F)c1)Nc1ccc2ncnc(Nc3cccc(C(F)(F)F)c3)c2c1 ; field requested: IC50
Key: 0.0023

Exercise: Reported IC50 for Cc1ccc(NC(=O)Nc2ccc3ncnc(Nc4cccc(F)c4)c3c2)cc1Cl : what is it?
Key: 0.147

Exercise: Could you share which IC50 value was measured for O=C(Nc1ccc(Br)cc1)Nc1ccc2ncnc(Nc3ccccc3)c2c1 ?
Key: 0.173
